assay: Rat plasma pharmacokinetic study, single daily dose for 28 days, plasma on first day of dosing; format: in vivo, Sprague-Dawley rats; settings: Sprague-Dawley, 100 mg/kg, read-out: elimination half-life (converted)
measuredMetric: half-life (h)
I only need the number, in h, no unit after it.

Prompt: Look up and report measured half-life for this entry: COc1cc(/C=C/C(=O)Nc2ccccc2C(=O)O)ccc1OC(F)F
Response: 11

---

assay: Rat plasma and retina pharmacokinetics, single oral dose 50 mg/kg; assay type: in vivo, Sprague Dawley rats; conditions: male, Sprague Dawley; rat retina, single oral dose 50 mg/kg; read-out: estimated Cmax in retina
measuredMetric: Cmax

Prompt: Please give measured Cmax of the following entry: COc1cc(/C=C/C(=O)Nc2ccccc2C(=O)O)ccc1OC(F)F
Response: 792 ng/g

---

assay: Rabbit plasma and ocular tissue steady state pharmacokinetics, 8 daily oral doses; assay type: in vivo, Dutch Belted pigmented rabbits; conditions: male, Dutch Belted; rabbit Plasma, 50 mg/kg/day oral, Day 8; read-out: Tmax
measuredMetric: Tmax (h)
Write the value in h as a bare number.

Prompt: Retrieve Tmax measured for COc1cc(/C=C/C(=O)Nc2ccccc2C(=O)O)ccc1OC(F)F and print it.
Response: 1

---

test: Human clinical plasma pharmacokinetics, single or multiple doses of 200 mg; format: in vivo, humans; conditions: human, plasma, po, 200 mg, 200 mg oral, Day 14, multiple dose, read-out: T ½ (converted)
measuredMetric: half-life (h)
Express the result in h but write the number alone.

Prompt: Given COc1cc(/C=C/C(=O)Nc2ccccc2C(=O)O)ccc1OC(F)F , respond with its half-life.
Response: 23.2

---

test: Human clinical plasma pharmacokinetics, single or multiple doses of 200 mg; format: in vivo, humans; conditions: human, plasma, po, 200 mg, 200 mg oral, Day 1, single dose
measuredMetric: AUC(0-inf) (µg·h/mL)
Respond numerically; units are µg·h/mL and should not be typed.

Prompt: Read the entry COc1cc(/C=C/C(=O)Nc2ccccc2C(=O)O)ccc1OC(F)F and write its reported AUC(0-inf).
Response: 390

---

experiment: Rabbit plasma and ocular tissue steady state pharmacokinetics, 8 daily oral doses; format: in vivo, Dutch Belted pigmented rabbits; conditions: male, Dutch Belted; rabbit Iris Ciliary Body, 100 mg/kg/day oral, Day 8; read-out: Tmax
measuredMetric: Tmax (h)
Respond with the bare value in h.

Prompt: Consider the compound COc1cc(/C=C/C(=O)Nc2ccccc2C(=O)O)ccc1OC(F)F and give its recorded Tmax.
Response: 2

---

assay: Rabbit plasma and ocular tissue steady state pharmacokinetics, 8 daily oral doses; type: in vivo, Dutch Belted pigmented rabbits; conditions: male, Dutch Belted; rabbit Vitreous Humour, 50 mg/kg/day oral, Day 8; read-out: Tmax
measuredMetric: Tmax

Prompt: Entry COc1cc(/C=C/C(=O)Nc2ccccc2C(=O)O)ccc1OC(F)F needs its Tmax filled in; supply it.
Response: 1 h

---

experiment: Rabbit plasma and ocular tissue steady state pharmacokinetics, 8 daily oral doses; format: in vivo, Dutch Belted pigmented rabbits; details: male, Dutch Belted; rabbit Vitreous Humour, 100 mg/kg/day oral, Day 8; read-out: Tmax
measuredMetric: Tmax (h)
Answer in h, number only, no unit symbol.

Prompt: Could you please provide reported Tmax for COc1cc(/C=C/C(=O)Nc2ccccc2C(=O)O)ccc1OC(F)F ? Thanks!
Response: 4

---

experiment: Rabbit plasma and ocular tissue steady state pharmacokinetics, 8 daily oral doses; type: in vivo, Dutch Belted pigmented rabbits; details: male, Dutch Belted; rabbit Plasma, 50 mg/kg/day oral, Day 8
measuredMetric: Cmax (ng/mL)
Give the number; ng/mL is assumed, so skip it.

Prompt: Look up and state reported Cmax for COc1cc(/C=C/C(=O)Nc2ccccc2C(=O)O)ccc1OC(F)F
Response: 15200
